The following molecules are listed with their measured LogP values.
# methodDescription: Log P by HPLC on reversed phase columns (EEC directive 79/831 Annex V.A8)
# Format: physicochemical
# measurementParameters: Table 1; method [a]: LC-UV, acidic range, 0.1% formic acid in water and acetonitrile
readoutName: LogP

>  <molecule>
Cn1nc(C(F)F)c(C(=O)Nc2cccc3c2CC32CCCC2)c1F

>  <experimentalValue>
3.90[a]

$$$$
>  <molecule>
CC(C)C1Cc2c(NC(=O)c3c(C(F)F)nn(C)c3Cl)cccc21 (stereo not drawn)

>  <experimentalValue>
4.06^[a]

$$$$
>  <molecule>
Cn1cc(C(=O)Nc2cccc3c2CC32CCCC2)c(C(F)F)n1

>  <experimentalValue>
3.59^[a]

$$$$
>  <molecule>
CC1Cc2c(NC(=O)c3c(C(F)F)nn(C)c3F)cccc21 (stereo not drawn)

>  <experimentalValue>
3.02^[a]

$$$$
>  <molecule>
CCC1(C)Cc2c(NC(=O)c3c(C(F)F)nn(C)c3Cl)cccc21 (stereo not drawn)

>  <experimentalValue>
3.96^[a]

$$$$
>  <molecule>
CCC1(CC)Cc2c(NC(=O)c3c(C(F)F)nn(C)c3Cl)cccc21

>  <experimentalValue>
4.36^[a]

$$$$
>  <molecule>
Cn1nc(C(F)F)c(C(=O)Nc2cccc3c2CC32CCCCC2)c1Cl

>  <experimentalValue>
4.56^[a]

$$$$
>  <molecule>
Cc1nn(C)c(F)c1C(=O)Nc1cccc2c1CC21CCCCC1

>  <experimentalValue>
3.87^[a]

$$$$
>  <molecule>
CC(C)C1Cc2c(NC(=O)c3cccnc3C(F)F)cccc21 (stereo not drawn)

>  <experimentalValue>
3.39^[a]

$$$$
>  <molecule>
Cn1nc(C(F)F)c(C(=O)Nc2cccc3c2CC32CCCCC2)c1F

>  <experimentalValue>
4.31^[a]

$$$$
>  <molecule>
CCC1(C)Cc2c(NC(=O)c3cn(C)nc3C(F)F)cccc21 (stereo not drawn)

>  <experimentalValue>
3.44^[a]

$$$$
>  <molecule>
CCC1(C)Cc2c(NC(=O)c3cccnc3C(F)F)cccc21 (stereo not drawn)

>  <experimentalValue>
3.31^[a]

$$$$
>  <molecule>
CC(C)C1Cc2c(NC(=O)c3cn(C)nc3C(F)F)cccc21 (stereo not drawn)

>  <experimentalValue>
3.50^[a]

$$$$
>  <molecule>
Cn1nc(C(F)F)c(C(=O)Nc2cccc3c2CC3c2ccccc2)c1Cl (stereo not drawn)

>  <experimentalValue>
3.71^[a]

$$$$
>  <molecule>
O=C(Nc1cccc2c1CC2c1ccccc1)c1cccnc1C(F)F (stereo not drawn)

>  <experimentalValue>
3.06^[a]

$$$$
